System: pigweed (Amaranthus retroflexus)
Assay: Test A preemergence, pigweed
Assay type: in vivo
Details: Preemergence, 31 g ai/ha; 0 to 100 scale (0 no effect, 100 complete control)
Property Measured: Plant response rating, Pigweed
Answer with a number only.

In the examples that follow, each entry is paired with its recorded Plant response rating, Pigweed.
{"Smiles Representation": "Cc1cccc(Oc2ncc(Cl)cn2)c1OCCCC(F)(F)F", "Plant response rating, Pigweed": 0}
{"Smiles Representation": "Cl/C=C/COc1c(Cl)cccc1Oc1ncc(Cl)cn1", "Plant response rating, Pigweed": 0}
{"Smiles Representation": "FCCCOc1c(Cl)cccc1Oc1ncc(Cl)cn1", "Plant response rating, Pigweed": 10}
{"Smiles Representation": "N#CCCCOc1c(Cl)cccc1Oc1ncc(Cl)cn1", "Plant response rating, Pigweed": 20}
{"Smiles Representation": "N#Cc1cccc(Oc2ncc(Cl)cn2)c1OCC(=O)C(F)(F)C(F)(F)F", "Plant response rating, Pigweed": 60}

Lab book: Plant response rating, Pigweed of CCCCCOc1c(C#N)cccc1Oc1ncc(Cl)cn1 noted as 10

Lab book: Plant response rating, Pigweed of FC(F)(F)/C=C/COc1c(I)cccc1Oc1ncc(Cl)cn1 noted as 0

Lab book: Plant response rating, Pigweed of N#CCCCOc1c(I)cccc1Oc1ncc(Cl)cn1 noted as 50

Lab book: Plant response rating, Pigweed of O=C(COc1c(Br)cccc1Oc1ncc(Cl)cn1)C(F)(F)C(F)(F)F noted as 40

Lab book: Plant response rating, Pigweed of CCCOc1c(C#N)cccc1Oc1ncc(Cl)cn1 noted as 20

====

Tested on: ragweed (common ragweed, Ambrosia elatior)
Assay: Test A postemergence, ragweed
Format: in vivo
Conditions: 500 g ai/ha, postemergence; 0 to 100 scale, 0 is no effect, 100 is complete control; approximately 10 days
Property Measured: Plant response rating, Ragweed
Answer with a number only.

{"Molecule": "FC(F)(F)c1ccc(COc2c(Br)cccc2Oc2ncc(Cl)cn2)cc1 [Compound 19]", "Assay System": "ragweed (common ragweed, Ambrosia elatior)", "Plant response rating, Ragweed": 20}
{"Molecule": "N#Cc1cccc(Oc2ncc(Cl)cn2)c1OCC(F)F [Compound 16]", "Assay System": "ragweed (common ragweed, Ambrosia elatior)", "Plant response rating, Ragweed": 60}
{"Molecule": "CC(C)CCCOc1c(Br)cccc1Oc1ncc(Cl)cn1 [Compound 11]", "Assay System": "ragweed (common ragweed, Ambrosia elatior)", "Plant response rating, Ragweed": 0}
{"Molecule": "CC(C)CCOc1c(Br)cccc1Oc1ncc(Cl)cn1 [Compound 12]", "Assay System": "ragweed (common ragweed, Ambrosia elatior)", "Plant response rating, Ragweed": 20}
{"Molecule": "Fc1cccc(Oc2ncc(Cl)cn2)c1OCCC(F)(F)F [Compound 29]", "Assay System": "ragweed (common ragweed, Ambrosia elatior)", "Plant response rating, Ragweed": 10}

Lab book: Plant response rating, Ragweed of N#Cc1cccc(Oc2ncc(Cl)cn2)c1OCc1ccccc1Cl [Compound 2] noted as 10

Lab book: Plant response rating, Ragweed of Fc1cccc(Oc2ncc(Cl)cn2)c1OC/C=C/Cl [Compound 9] noted as 0

Lab book: Plant response rating, Ragweed of Fc1cccc(Oc2ncc(Cl)cn2)c1OCCCC(F)(F)F [Compound 27] noted as 10

====

System: ducksalad (Heteranthera limosa)
Test: Test B flooded paddy test, ducksalad
Type: in vivo
Settings: 250 g ai/ha, Flood; visual rating after 13 to 15 days; scale 0 to 100, 0 is no effect, 100 is complete control
Property Measured: Plant response rating, Ducksalad

{"Smiles Representation": "Fc1cccc(Oc2ncc(Cl)cn2)c1OC/C=C/Cl", "Assay System": "ducksalad (Heteranthera limosa)", "Plant response rating, Ducksalad": 80}
{"Smiles Representation": "Fc1cccc(Oc2ncc(Cl)cn2)c1OC/C=C/C(F)(F)F", "Assay System": "ducksalad (Heteranthera limosa)", "Plant response rating, Ducksalad": 100}
{"Smiles Representation": "Cc1cccc(Oc2ncc(Cl)cn2)c1OC/C=C/Cl", "Assay System": "ducksalad (Heteranthera limosa)", "Plant response rating, Ducksalad": 100}
{"Smiles Representation": "N#Cc1cccc(Oc2ncc(Cl)cn2)c1OCc1ccccc1Cl", "Assay System": "ducksalad (Heteranthera limosa)", "Plant response rating, Ducksalad": 0}
{"Smiles Representation": "FCCCOc1c(F)cccc1Oc1ncc(Cl)cn1", "Assay System": "ducksalad (Heteranthera limosa)", "Plant response rating, Ducksalad": 30}

As a next step, examine the compound that follows.
Lab book: Plant response rating, Ducksalad of C#Cc1cccc(Oc2ncc(Cl)cn2)c1OCCCF noted as 0

====

compounds and their reported Plant response rating, Kochia
System: kochia (Kochia scoparia)
Experiment: Test A postemergence, kochia
Assay type: in vivo
Conditions: 125 g ai/ha, postemergence; 0 to 100 scale, 0 is no effect, 100 is complete control; approximately 10 days

In the examples that follow, each entry is paired with its recorded Plant response rating, Kochia.
{"Smiles Representation": "CCC(=O)COc1c(C#N)cccc1Oc1ncc(Cl)cn1", "Assay System": "kochia (Kochia scoparia)", "Plant response rating, Kochia": 20}
{"Smiles Representation": "FC(F)=C(F)CCOc1c(Br)cccc1Oc1ncc(Cl)cn1", "Assay System": "kochia (Kochia scoparia)", "Plant response rating, Kochia": 70}
{"Smiles Representation": "FC(F)(F)CCOc1c(I)cccc1Oc1ncc(Cl)cn1", "Assay System": "kochia (Kochia scoparia)", "Plant response rating, Kochia": 100}
{"Smiles Representation": "Cl/C=C/COc1c(I)cccc1Oc1ncc(Cl)cn1", "Assay System": "kochia (Kochia scoparia)", "Plant response rating, Kochia": 100}

As a next step, examine the compound that follows.
Lab book: Plant response rating, Kochia of FC(F)(F)CCCOc1c(Oc2ncc(Cl)cn2)cccc1C(F)(F)F noted as 50

====

Test system: blackgrass (Alopecurus myosuroides)
Experiment: Test A postemergence, blackgrass
Type: in vivo
Conditions: 125 g ai/ha, postemergence; 0 to 100 scale, 0 is no effect, 100 is complete control; approximately 10 days
Property Measured: Plant response rating, Blackgrass

In the examples that follow, each entry is paired with its recorded Plant response rating, Blackgrass.
{"Smiles Representation": "N#Cc1cccc(Oc2ncc(Cl)cn2)c1OCCCC(F)(F)F", "Assay System": "blackgrass (Alopecurus myosuroides)", "Plant response rating, Blackgrass": 20}
{"Smiles Representation": "N#CCCCOc1c(Cl)cccc1Oc1ncc(Cl)cn1", "Assay System": "blackgrass (Alopecurus myosuroides)", "Plant response rating, Blackgrass": 0}
{"Smiles Representation": "Cc1cccc(Oc2ncc(Cl)cn2)c1OCCCC(F)(F)F", "Assay System": "blackgrass (Alopecurus myosuroides)", "Plant response rating, Blackgrass": 20}
{"Smiles Representation": "FC(F)(F)CCCOc1c(Br)cccc1Oc1ncc(Cl)cn1", "Assay System": "blackgrass (Alopecurus myosuroides)", "Plant response rating, Blackgrass": 40}

As a next step, examine the compound that follows.
Measured Plant response rating, Blackgrass (blackgrass (Alopecurus myosuroides)), entry N#CCCCOc1c(F)cccc1Oc1ncc(Cl)cn1 : 0

====

Test system: pigweed (Amaranthus retroflexus)
Assay: Test A postemergence, pigweed
Assay type: in vivo
Details: 500 g ai/ha, postemergence; 0 to 100 scale, 0 is no effect, 100 is complete control; approximately 10 days
Property Measured: Plant response rating, Pigweed
Answer with a number only.

In the examples that follow, each entry is paired with its recorded Plant response rating, Pigweed.
{"Smiles Representation": "N#Cc1cccc(Oc2ncc(Cl)cn2)c1OCC(F)(F)C(F)F", "Assay System": "pigweed (Amaranthus retroflexus)", "Quantitative Result": 100}
{"Smiles Representation": "N#Cc1cccc(Oc2ncc(Cl)cn2)c1OCc1ccccc1Cl", "Assay System": "pigweed (Amaranthus retroflexus)", "Quantitative Result": 10}
{"Smiles Representation": "N#Cc1cccc(Oc2ncc(Cl)cn2)c1OCc1ccc(Cl)cc1", "Assay System": "pigweed (Amaranthus retroflexus)", "Quantitative Result": 100}
{"Smiles Representation": "N#CCCCOc1c(F)cccc1Oc1ncc(Cl)cn1", "Assay System": "pigweed (Amaranthus retroflexus)", "Quantitative Result": 70}
{"Smiles Representation": "N#Cc1cccc(Oc2ncc(Cl)cn2)c1OCc1cccc(Cl)c1", "Assay System": "pigweed (Amaranthus retroflexus)", "Quantitative Result": 60}
{"Smiles Representation": "N#Cc1cccc(Oc2ncc(Cl)cn2)c1OCC(F)F", "Assay System": "pigweed (Amaranthus retroflexus)", "Quantitative Result": 100}

Lab book: Plant response rating, Pigweed of FC(F)(F)c1ccc(COc2c(Br)cccc2Oc2ncc(Cl)cn2)cc1 noted as 100

Lab book: Plant response rating, Pigweed of FC(F)C(F)(F)C(F)(F)C(F)(F)COc1c(Br)cccc1Oc1ncc(Cl)cn1 noted as 100

====

Test system: ragweed (common ragweed, Ambrosia elatior)
Assay: Test A preemergence, ragweed
Assay type: in vivo
Conditions: Preemergence, 31 g ai/ha; 0 to 100 scale (0 no effect, 100 complete control)
compounds and their reported Plant response rating, Ragweed
Answer with a number only.

In the examples that follow, each entry is paired with its recorded Plant response rating, Ragweed.
{"Smiles Representation": "N#CCCCOc1c(C#N)cccc1Oc1ncc(F)cn1", "Plant response rating, Ragweed": 30}
{"Smiles Representation": "N#Cc1cccc(Oc2ncc(F)cn2)c1OCCC(F)(F)F", "Plant response rating, Ragweed": 10}
{"Smiles Representation": "Cc1cccc(Oc2ncc(Cl)cn2)c1OCCC(F)(F)F", "Plant response rating, Ragweed": 0}
{"Smiles Representation": "N#Cc1cccc(Oc2ncc(Cl)cn2)c1OCCCCC(F)(F)F", "Plant response rating, Ragweed": 0}

As a next step, examine the compound that follows.
Measured Plant response rating, Ragweed (ragweed (common ragweed, Ambrosia elatior)), entry CCC(=O)COc1c(Br)cccc1Oc1ncc(Cl)cn1 : 0
